The measurements presented in this section are drawn from ChEMBL document CHEMBL1142114.

# Test system: RAW264.7
# experiment summary: Inhibition of NF-kappaB activation in LPS-stimulated RAW264.7 cells after 24 hrs
# Type: functional, cell-based
# assay conditions: Mus musculus, RAW264.7, 24 h
measurement name: IC50 (nM)
Give the number; nM is assumed, so skip it.

As a guide, the following entries are already answered.
{"compound": "C=C1C(=O)[C@@]23CC[C@@H]4[C@](C)(CO)[C@@H](OC(C)=O)CC[C@@]4(C)[C@@H]2[C@@H](O)C[C@@H]1C3 [EXCISUSIN A]", "measurement name": "IC50", "unit of measurement": "nM", "value": 900}
{"compound": "C=C1C(=O)[C@]23C[C@H]1C[C@H](O)[C@H]2[C@]1(C)CCC(=O)C(C)(C)[C@H]1[C@@H](O)C3", "measurement name": "IC50", "unit of measurement": "nM", "value": 1150}
{"compound": "C=C1C(=O)[C@@]23CC(=O)[C@@H]4C(C)(C)[C@@H](OC(C)=O)C[C@H](O)[C@@]4(C)[C@@H]2[C@@H](OC(C)=O)C[C@@H]1C3", "measurement name": "IC50", "unit of measurement": "nM", "value": 230}
{"compound": "C=C1C(=O)[C@]23C[C@H]1C[C@H](O)[C@H]2[C@]1(C)CC[C@H](OC(C)=O)C(C)(C)[C@H]1[C@@H](O)C3", "measurement name": "IC50", "unit of measurement": "nM", "value": 400}
{"compound": "C=C1C(=O)[C@]23C[C@H]1C[C@H](OC(C)=O)[C@H]2[C@@]1(C)[C@H]([C@@H](O)C3)C(C)(C)[C@@H](OC(C)=O)C[C@@H]1O", "measurement name": "IC50", "unit of measurement": "nM", "value": 440}
{"compound": "C=C1C(=O)[C@@]23CC[C@H]4[C@@](C)(CCC(=O)[C@@]4(C)COC(C)=O)[C@@H]2[C@@H](O)C[C@@H]1C3 [EXCISUSIN E]", "measurement name": "IC50", "unit of measurement": "nM", "value": 1020}
{"compound": "C=C1C(=O)[C@@]23CC[C@@H]4C(C)(C)[C@@H](OC(C)=O)C[C@H](O)[C@@]4(C)[C@@H]2[C@@H](OC(C)=O)C[C@@H]1C3", "measurement name": "IC50", "unit of measurement": "nM", "value": 240}
{"compound": "C=C1C(=O)O[C@@H]2C3O[C@]3(C)CC/C=C(\\C)CC[C@@H]12 (stereo partly drawn)", "measurement name": "IC50", "unit of measurement": "nM", "value": 1150}

*Q* Which IC50 is listed for C=C1C(=O)[C@@]23CC[C@@H]4C(C)(C)[C@@H](OC(C)=O)C[C@H](O)[C@@]4(C)[C@@H]2[C@@H](O)C[C@@H]1C3 [EXCISUSIN B] ?
*A* 260

*Q* Which IC50 is listed for C=C1C(=O)[C@]23C[C@H]1C[C@H](OC(C)=O)[C@H]2[C@@]1(C)[C@H]([C@@H](O)C3)C(C)(C)[C@@H](O)C[C@@H]1O [EXCISUSIN D] ?
*A* 3210

*Q* Which IC50 is listed for `C=C1C(=O)[C@]23C[C@H]1C[C@H](O)[C@H]2[C@@]1(C)[C@H]([C@@H](O)C3)C(C)(C)[C@@H](OC(C)=O)C[C@@H]1O` ?
*A* 1820

* * *

Items are presented alongside their recorded IC50.
# System: RAW264.7
# experiment summary: Inhibition of NO production in LPS-stimulated RAW264.7 cells after 24 hrs
# Type: functional, cell-based
# assay conditions: Mus musculus, RAW264.7, 24 h
Give the number; nM is assumed, so skip it.

As a guide, the following entries are already answered.
{"compound": "C=C1C(=O)[C@]23C[C@H]1C[C@H](O)[C@H]2[C@]1(C)CC[C@H](OC(C)=O)C(C)(C)[C@H]1[C@@H](O)C3", "value": 630}
{"compound": "C=C1C(=O)[C@]23C[C@H]1C[C@H](O)[C@H]2[C@]1(C)CCC(=O)C(C)(C)[C@H]1[C@@H](O)C3", "value": 1240}
{"compound": "C=C1C(=O)[C@@]23CC[C@@H]4[C@](C)(CO)[C@@H](OC(C)=O)CC[C@@]4(C)[C@@H]2[C@@H](O)C[C@@H]1C3 [EXCISUSIN A]", "value": 670}

*Q* What value of IC50 on RAW264.7 does `C=C1C(=O)[C@]23C[C@H]1C[C@H](O)[C@H]2[C@@]1(C)[C@H]([C@@H](O)C3)C(C)(C)[C@@H](OC(C)=O)C[C@@H]1O` have?
*A* 2520

*Q* What value of IC50 on RAW264.7 does `N=C(N)NN` have?
*A* 32200

*Q* What value of IC50 on RAW264.7 does C=C1C(=O)[C@@]23CC[C@H]4[C@@](C)(CCC(=O)[C@@]4(C)COC(C)=O)[C@@H]2[C@@H](O)C[C@@H]1C3 [EXCISUSIN E] have?
*A* 1360

*Q* What value of IC50 on RAW264.7 does C=C1C(=O)[C@]23C[C@H]1C[C@H](OC(C)=O)[C@H]2[C@@]1(C)[C@H]([C@@H](O)C3)C(C)(C)[C@@H](O)C[C@@H]1O [EXCISUSIN D] have?
*A* 2890

*Q* What value of IC50 on RAW264.7 does C=C1C(=O)[C@@]23CC[C@@H]4C(C)(C)[C@@H](OC(C)=O)C[C@H](O)[C@@]4(C)[C@@H]2[C@@H](O)C[C@@H]1C3 [EXCISUSIN B] have?
*A* 560

*Q* What value of IC50 on RAW264.7 does `C=C1C(=O)[C@@]23CC(=O)[C@@H]4C(C)(C)[C@@H](OC(C)=O)C[C@H](O)[C@@]4(C)[C@@H]2[C@@H](OC(C)=O)C[C@@H]1C3` have?
*A* 690

*Q* What value of IC50 on RAW264.7 does `C=C1C(=O)[C@@]23CC[C@@H]4C(C)(C)[C@@H](OC(C)=O)C[C@H](O)[C@@]4(C)[C@@H]2[C@@H](OC(C)=O)C[C@@H]1C3` have?
*A* 480

*Q* What value of IC50 on RAW264.7 does `C=C1C(=O)[C@]23C[C@H]1C[C@H](OC(C)=O)[C@H]2[C@@]1(C)[C@H]([C@@H](O)C3)C(C)(C)[C@@H](OC(C)=O)C[C@@H]1O` have?
*A* 940
